target_desc: A1 receptors of the SA node (Cavia porcellus, UniProt P47745)
Construct: perfused hearts from female Sprague-Dawley guinea pigs in an isolated Langendorff heart preparation
Sequence (P47745 whole entry, the tested form may be a part): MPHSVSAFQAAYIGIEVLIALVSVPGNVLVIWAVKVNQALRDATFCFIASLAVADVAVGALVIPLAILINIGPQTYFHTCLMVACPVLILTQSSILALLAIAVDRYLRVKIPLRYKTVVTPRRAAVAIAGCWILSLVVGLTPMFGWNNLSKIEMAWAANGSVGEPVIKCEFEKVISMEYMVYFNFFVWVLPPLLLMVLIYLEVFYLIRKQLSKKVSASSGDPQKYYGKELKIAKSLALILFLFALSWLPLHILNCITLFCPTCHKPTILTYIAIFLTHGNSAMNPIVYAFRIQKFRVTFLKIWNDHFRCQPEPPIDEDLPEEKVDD
assay_info: SQ (stimulus to Q) interval prolongation (A1 effect), isolated perfused Langendorff heart
test_settings: concentration for half-maximal prolongation of stimulus to Q interval; infusion into aortic cannula, stepwise every 5 minutes; read-out: SQ Prolongation (A1) ED50
Consider the cut-off 20 µM. If the recorded EC50 is strictly smaller, the label is true; if not, the label is false.

Here are 2 compounds together with their reported answers.
{"compound": "Nc1nc(OCCc2cccs2)nc2c1ncn2[C@@H]1O[C@H](CO)[C@@H](O)[C@H]1O [Example 13, 2-[2-(2-thienyl)ethoxy]adenosine]", "answer_label": "true"}
{"compound": "Nc1nc(OCc2ccccc2)nc2c1ncn2[C@@H]1O[C@H](CO)[C@@H](O)[C@H]1O [Example 6, 2-benzyloxyadenosine]", "answer_label": "true"}

Challenge: is_below(EC50, 20 µM) for Nc1nc(OCCCCCc2ccccc2)nc2c1ncn2[C@@H]1O[C@H](CO)[C@@H](O)[C@H]1O [Example 21, 2-(5-phenyl-1-pentoxy)adenosine] ?
Response given: true

Challenge: Consider COc1cccc(CCOc2nc(N)c3ncn([C@@H]4O[C@H](CO)[C@@H](O)[C@H]4O)c3n2)c1 [Example 9, 2-[2-(3-methoxyphenyl)ethoxy]adenosine] . Does its EC50 lie strictly below 20 µM?
Response given: true

Challenge: Would you kindly verify if EC50 of Cc1ccccc1CCOc1nc(N)c2ncn([C@@H]3O[C@H](CO)[C@@H](O)[C@H]3O)c2n1 [Example 11, 2-[2-(2-methylphenyl)ethoxy]adenosine] is strictly less than 20 µM?
Response given: false

Challenge: hey, is EC50 for Nc1nc(OCCc2c[nH]c3ccccc23)nc2c1ncn2[C@@H]1O[C@H](CO)[C@@H](O)[C@H]1O [Example 16, 2-[2-(3-indolyl)ethoxy]adenosine] lower than 20 µM or not?
Response given: true

Challenge: Regarding Nc1nc(OCCc2cccc3ccccc23)nc2c1ncn2[C@@H]1O[C@H](CO)[C@@H](O)[C@H]1O [Example 15, 2-[2-(1-naphthyl)ethoxy]adenosine] , kindly confirm whether its EC50 is beneath 20 µM.
Response given: true

Challenge: Problem: For the compound Nc1nc(OCCc2ccc(F)cc2)nc2c1ncn2[C@@H]1O[C@H](CO)[C@@H](O)[C@H]1O [Example 2, 2-[2-(4-fluorophenyl)ethoxy]adenosine] , is EC50 under 20 µM?
Response given: false

Challenge: Does the reported EC50 of the following compound sit strictly below 20 µM? COc1cc(CCOc2nc(N)c3ncn([C@@H]4O[C@H](CO)[C@@H](O)[C@H]4O)c3n2)cc(OC)c1OC [Example 12]
Response given: false

Challenge: Hello, I'm reviewing records and need to know if EC50 of COc1ccccc1CCOc1nc(N)c2ncn([C@@H]3O[C@H](CO)[C@@H](O)[C@H]3O)c2n1 [Example 8, 2-[2-(2-methoxyphenyl)ethoxy]adenosine] is below 20 µM. Could you check?
Response given: false

Challenge: Is 20 µM strictly greater than the compound's reported EC50? compound: Nc1nc(OCCc2ccc3ccccc3c2)nc2c1ncn2[C@@H]1O[C@H](CO)[C@@H](O)[C@H]1O [Example 24, 2-[2-(2-naphthyl)ethoxy]adenosine]
Response given: true

Challenge: Field: below-cutoff. Rule: recorded EC50 strictly less than 20 µM. Subject: CC[C@@H](COc1nc(N)c2ncn([C@@H]3O[C@H](CO)[C@@H](O)[C@H]3O)c2n1)c1ccccc1 [Example 18]
Response given: true

* * *

target_desc: A2 receptor of the coronary artery (Cavia porcellus, UniProt P46616)
Construct: perfused hearts from female Sprague-Dawley guinea pigs in an isolated Langendorff heart preparation; from tissue; host or cells: isolated perfused guinea pig heart (Langendorff), coronary vasculature
Sequence (P46616 whole entry, the tested form may be a part): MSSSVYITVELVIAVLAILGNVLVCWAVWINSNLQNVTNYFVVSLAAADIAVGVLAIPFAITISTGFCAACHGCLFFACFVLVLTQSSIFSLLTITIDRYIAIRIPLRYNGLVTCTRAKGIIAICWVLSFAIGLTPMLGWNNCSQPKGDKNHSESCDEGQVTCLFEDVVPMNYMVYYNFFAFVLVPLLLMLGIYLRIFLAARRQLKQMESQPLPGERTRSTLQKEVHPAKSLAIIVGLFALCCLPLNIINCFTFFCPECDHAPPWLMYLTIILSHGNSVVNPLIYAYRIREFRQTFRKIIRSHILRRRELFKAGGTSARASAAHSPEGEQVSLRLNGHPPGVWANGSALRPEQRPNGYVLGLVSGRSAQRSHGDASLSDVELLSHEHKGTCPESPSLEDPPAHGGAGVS
assay_info: Coronary blood flow increase (A2 effect), isolated perfused Langendorff heart
Design: species or system guinea pig (female Sprague-Dawley guinea pigs)
test_settings: ratio of SQ prolongation ED50 (A1) to coronary flow EC50 (A2)
Procedure: Assays of the cardiovascular potency of the above compounds at the A1 receptors of the SA node and at the A2 receptor of the coronary artery employed perfused hearts from female Sprague-Dawley guinea pigs in an isolated Langendorff heart preparation. […] The concentration of test compound required to produce a half-maximal increase in coronary flow is determined. […] The concentration of test compound required to produce a half-maximal prolongation of stimulus to Q interval is determined. […]
attribute_measured: Selectivity (A1/A2)
Respond using a number only.

In the examples that follow, each entry is paired with its recorded Selectivity (A1/A2).
{"compound": "Nc1nc(OCCc2ccccc2)nc2c1ncn2[C@@H]1O[C@H](CO)[C@@H](O)[C@H]1O", "Selectivity (A1/A2)": 7126}
{"compound": "Nc1nc(OCc2ccccc2)nc2c1ncn2[C@@H]1O[C@H](CO)[C@@H](O)[C@H]1O", "Selectivity (A1/A2)": 15}
{"compound": "COc1cc(CCOc2nc(N)c3ncn([C@@H]4O[C@H](CO)[C@@H](O)[C@H]4O)c3n2)cc(OC)c1OC", "Selectivity (A1/A2)": 2151}
{"compound": "COc1ccc(CCOc2nc(N)c3ncn([C@@H]4O[C@H](CO)[C@@H](O)[C@H]4O)c3n2)cc1 [Example 10, 2-[2-(4-methoxyphenyl)ethoxy]adenosine]", "Selectivity (A1/A2)": 14089}
{"compound": "CC[C@H](COc1nc(N)c2ncn([C@@H]3O[C@H](CO)[C@@H](O)[C@H]3O)c2n1)c1ccccc1 [Example 19, 2-[(2S)-phenyl-1-butoxy]adenosine]", "Selectivity (A1/A2)": 872}
{"compound": "Nc1nc(OCCc2cccs2)nc2c1ncn2[C@@H]1O[C@H](CO)[C@@H](O)[C@H]1O [Example 13, 2-[2-(2-thienyl)ethoxy]adenosine]", "Selectivity (A1/A2)": 3212}
{"compound": "Cc1ccccc1CCOc1nc(N)c2ncn([C@@H]3O[C@H](CO)[C@@H](O)[C@H]3O)c2n1 [Example 11, 2-[2-(2-methylphenyl)ethoxy]adenosine]", "Selectivity (A1/A2)": 6610}
{"compound": "Nc1nc(OCCCCc2ccccc2)nc2c1ncn2[C@@H]1O[C@H](CO)[C@@H](O)[C@H]1O", "Selectivity (A1/A2)": 743}
{"compound": "Nc1nc(OCCc2ccc(F)cc2)nc2c1ncn2[C@@H]1O[C@H](CO)[C@@H](O)[C@H]1O [Example 2, 2-[2-(4-fluorophenyl)ethoxy]adenosine]", "Selectivity (A1/A2)": 29432}
{"compound": "COc1ccccc1CCOc1nc(N)c2ncn([C@@H]3O[C@H](CO)[C@@H](O)[C@H]3O)c2n1 [Example 8, 2-[2-(2-methoxyphenyl)ethoxy]adenosine]", "Selectivity (A1/A2)": 1109}

Challenge: State, in one line, measured Selectivity (A1/A2) of CC(COc1nc(N)c2ncn([C@@H]3O[C@H](CO)[C@@H](O)[C@H]3O)c2n1)c1ccccc1 (stereo partly drawn)
Response given: 5899

Challenge: Respond only with Selectivity (A1/A2) recorded for Nc1nc(OC2CCCCC2)nc2c1ncn2[C@@H]1O[C@H](CO)[C@@H](O)[C@H]1O
Response given: 152

* * *

Quick reference for pEC50 among some molecules
target_desc: A1 receptors of the SA node (Cavia porcellus, UniProt P47745)
Construct: perfused hearts from female Sprague-Dawley guinea pigs in an isolated Langendorff heart preparation
assay_info: SQ (stimulus to Q) interval prolongation (A1 effect), isolated perfused Langendorff heart
test_settings: concentration for half-maximal prolongation of stimulus to Q interval; infusion into aortic cannula, stepwise every 5 minutes; read-out: SQ Prolongation (A1) ED50
Description: Assays of the cardiovascular potency of the above compounds at the A1 receptors of the SA node and at the A2 receptor of the coronary artery employed perfused hearts from female Sprague-Dawley guinea pigs in an isolated Langendorff heart preparation. […] The concentration of test compound required to produce a half-maximal increase in coronary flow is determined. […] The concentration of test compound required to produce a half-maximal prolongation of stimulus to Q interval is determined. […]
Interpret pEC50 as the negative base-10 log of the concentration measured in mol/L.

Sample records with pEC50:
{"molecule": "COc1ccc(CCOc2nc(N)c3ncn([C@@H]4O[C@H](CO)[C@@H](O)[C@H]4O)c3n2)cc1 [Example 10, 2-[2-(4-methoxyphenyl)ethoxy]adenosine]", "pEC50": 4.71}
{"molecule": "Nc1nc(OCCc2ccccc2)nc2c1ncn2[C@@H]1O[C@H](CO)[C@@H](O)[C@H]1O [Example 7, 2-(2-phenylethoxy)adenosine]", "pEC50": 4.70}

Next item in the queue.
Challenge: Consider the molecule Nc1nc(OCCCc2ccccc2)nc2c1ncn2[C@@H]1O[C@H](CO)[C@@H](O)[C@H]1O [Example 1, 2-(3-phenyl-1-propoxy)adenosine] . State its measured pEC50.
Response given: 4.70
